Measured IC50 accompanies every entry in the list below.
# targetEntity: Caspase-7 (Homo sapiens, UniProt P55210)
# Construct: mixing the compounds with the respective active caspases; purchased BioVision K157-100
# Sequence (P55210 24-198 limits assumed): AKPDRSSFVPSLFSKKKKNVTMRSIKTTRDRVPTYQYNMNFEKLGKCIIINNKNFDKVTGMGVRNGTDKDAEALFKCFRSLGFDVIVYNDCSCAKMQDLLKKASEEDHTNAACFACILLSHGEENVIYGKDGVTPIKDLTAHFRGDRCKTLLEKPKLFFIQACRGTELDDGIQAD
# Sequence (P55210 207-303 limits assumed): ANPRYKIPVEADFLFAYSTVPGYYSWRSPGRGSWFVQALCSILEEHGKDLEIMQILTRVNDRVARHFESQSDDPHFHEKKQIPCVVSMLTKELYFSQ
# measurementNotes: Caspase-7 inhibitor screening assay (BioVision kit, DEVD-AFC)
# Type: biochemical
# assayConditions: read-out: IC50 Casp7
Counter-ions that a name gives are not always drawn.

| compound | targetEntity | IC50 |
| --- | --- | --- |
| CCOC(=O)/C=C/[C@@H](N)CC(=O)O [Compound 44, Asp ethyl vinyl ester tosyl salt] | Caspase-7 (Homo sapiens, UniProt P55210) | > 100 µM |
| CCOC(=O)/C=C/[C@H](CC(=O)O)NC(=O)[C@@H](NC(=O)[C@H](CCC(=O)O)NC(=O)[C@@H](NC(=O)OCc1ccccc1)C(C)C)c1ccccc1 [Compound 126, Z-Val-Glu-Phg-Asp-Ethyl Vinyl ester] | Caspase-7 (Homo sapiens, UniProt P55210) | > 100 µM |
| CCOC(=O)/C(Cl)=C/[C@H](CC(=O)O)NC(=O)[C@H]1CCCN1C(=O)[C@H](NC(=O)[C@H](CC(=O)O)NC(=O)OCc1ccccc1)C(C)(C)C [Compound 57] | Caspase-7 (Homo sapiens, UniProt P55210) | 0.15 µM |

get_value(item= CC(C)[C@H](NC(=O)[C@@H](NC(=O)[C@H](CC(=O)O)NC(=O)OCc1ccccc1)c1ccccc1)C(=O)N[C@H](/C=C/S(C)(=O)=O)CCC(=O)O [Compound 84, Z-Asp-Phg-Val-Glu methyl vinyl sulfone] , readout=IC50) returns 49.9 µM

* * *

# targetEntity: Caspase-2 (Homo sapiens, UniProt P42575)
# Construct: mixing the compounds with the respective active caspases; purchased BioVision K152-100
# Sequence (P42575 170-325 limits assumed): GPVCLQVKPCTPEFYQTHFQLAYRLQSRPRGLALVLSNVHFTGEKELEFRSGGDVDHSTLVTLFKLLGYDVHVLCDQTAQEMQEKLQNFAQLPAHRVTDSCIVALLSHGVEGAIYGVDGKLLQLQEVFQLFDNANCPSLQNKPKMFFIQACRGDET
# Sequence (P42575 334-452 limits assumed): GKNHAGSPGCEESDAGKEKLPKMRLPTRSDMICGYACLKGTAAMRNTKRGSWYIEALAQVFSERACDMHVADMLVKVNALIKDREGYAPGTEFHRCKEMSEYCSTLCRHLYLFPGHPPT
# measurementNotes: Caspase-2 inhibitor screening assay (BioVision kit, VDVAD-AFC)
# Assay type: biochemical
# assayConditions: read-out: % Inhibition at 100 uM Casp2
Measured inhibition at 100 µM accompanies every entry in the list below.
Unit % implied. Number only.

Completed entries (count: 4):
| compound | inhibition at 100 µM [%] |
| --- | --- |
| CC(C)(C)[C@H](NC(=O)c1ccc(N)c(Cl)c1)C(=O)N1CCCC1C(=O)N[C@H](/C=C/S(C)(=O)=O)CC(=O)O (stereo in doubt) | 10 |
| CC(C)(C)OC(=O)CC[C@H](NC(=O)OC(C)(C)C)C(=O)N[C@H](/C=C/S(C)(=O)=O)CC(=O)OC(C)(C)C | 18 |
| CCOC(=O)/C=C/[C@H](CC(=O)O)NC(=O)[C@@H](NC(=O)[C@@H](NC(=O)[C@H](CC(=O)O)NC(=O)OCc1ccccc1)c1ccccc1)C(C)C | 17 |
| CS(=O)(=O)/C=C/[C@H](CC(=O)O)NC(=O)[C@H]1CCCN1C(=O)[C@@H](NC(=O)[C@H](CC(=O)O)NC(=O)OCc1ccccc1)c1ccccc1 | 66 |

get_value(item= `CCOC(=O)/C=C/[C@H](CC(=O)O)NC(=O)[C@H]1CCCN1C(=O)[C@@H](NC(=O)c1ccc2ccccc2n1)C(C)(C)C` , readout=inhibition at 100 µM) returns 10

* * *

# targetEntity: Caspase-9 (Homo sapiens, UniProt P55211)
# Construct: purchased BioVision K159-100
# Sequence (P55211 1-315 limits assumed): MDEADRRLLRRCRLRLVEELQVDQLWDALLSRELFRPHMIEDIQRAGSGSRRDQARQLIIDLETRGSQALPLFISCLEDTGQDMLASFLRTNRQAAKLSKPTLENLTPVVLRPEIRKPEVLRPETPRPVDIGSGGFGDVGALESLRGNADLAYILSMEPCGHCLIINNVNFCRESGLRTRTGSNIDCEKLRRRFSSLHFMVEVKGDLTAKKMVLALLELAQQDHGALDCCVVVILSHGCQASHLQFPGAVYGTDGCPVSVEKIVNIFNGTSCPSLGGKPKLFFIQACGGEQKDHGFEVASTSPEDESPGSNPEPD
# Sequence (P55211 331-416 limits assumed): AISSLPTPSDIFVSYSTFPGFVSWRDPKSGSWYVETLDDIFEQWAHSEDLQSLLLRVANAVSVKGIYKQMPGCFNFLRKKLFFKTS
# measurementNotes: Caspase-9 inhibitor screening assay (BioVision kit, LEHD-AFC)
# Assay type: biochemical
# assayConditions: read-out: IC50 Casp9
measuredProperty: pIC50
Bear in mind: pIC50 is minus log10 of a mol/L concentration; give just that figure.

Completed entries (count: 3):
| testSmiles | pIC50 |
| --- | --- |
| CCOC(=O)/C=C/[C@H](CC(=O)O)NC(=O)[C@H]1CCCN1C(=O)[C@@H](NC(=O)c1ccc(N)c(Cl)c1)C(C)(C)C | 6.08 |
| CS(=O)(=O)/C=C/[C@H](CC(=O)O)NC(=O)[C@H]1CCCN1C(=O)[C@@H](NC(=O)[C@H](CC(=O)O)NC(=O)OCc1ccccc1)c1ccccc1 | 4.97 |
| CC(C)[C@H](NC(=O)[C@H](CCC(=O)O)NC(=O)[C@H](Cc1c[nH]c2ccccc12)NC(=O)OCc1ccccc1)C(=O)N[C@H](/C=C/S(C)(=O)=O)CC(=O)O | 5.76 |

# next compound below
get_value(item= `CC(C)(C)[C@@H](NC(=O)[C@H](CC(=O)O)NC(=O)OCc1ccccc1)C(=O)N1CC[C@@H]1C(=O)N[C@H](/C=C/S(C)(=O)=O)CC(=O)O` , readout=pIC50) returns 5.95

Attribution: patent US10975119B2
